METHOD: AUC in dog at 1 mg/kg, iv
Format: ADME, organism-based, Canis lupus familiaris
Parameters: dose 1 mg/kg, route iv
PARTICULARS: in vivo
MEASUREMENT TYPE: AUC (µM·h)

The following compounds have reported results that may help.
- STRUCTURE NOTATION: "C[C@H]1CCN1c1nc(-c2cnn(CC(=O)N3C[C@H](O)[C@@H](O)C3)c2)cc(C(F)(F)F)c1C#N"
  AUC [µM·h]: 2.5
- STRUCTURE NOTATION: "C[C@H]1CCN1c1nc(-c2cnn(CC(=O)N3CCNCC3)c2)cc(C(F)(F)F)n1"
  AUC [µM·h]: 12.9

A: OC[C@H]1CCN1c1nc(-c2cnn(C3CCNCC3)c2)cc(C(F)(F)F)n1
B: C[C@H]1CCN1c1nc(-c2cnn(CC(=O)NCCO)c2)cc(C(F)(F)F)c1C#N
C: OC[C@H]1CCN1c1nc(-c2cnn(C3CNC3)c2)cc(C(F)(F)F)n1
In: Hey, can you sort those compounds up there by AUC, smallest first? Form entry: ranked labels (order as requested).
Out: C, A, B
(C: 1.31 µM·h, A: 1.97 µM·h, B: 9.04 µM·h)

* * *

METHOD: Volume of distribution in dog at 1 mg/kg, iv
Type: ADME, organism-based, Canis lupus familiaris
PARTICULARS: in vivo
MEASUREMENT TYPE: Vd (L/kg)

The following compounds have reported results that may help.
- STRUCTURE NOTATION: "C[C@H]1CCN1c1nc(-c2cnn(CC(=O)N3CCNCC3)c2)cc(C(F)(F)F)n1"
  Vd / L/kg: 7.8
- STRUCTURE NOTATION: "C[C@H]1CCN1c1nc(-c2cnn(CC(=O)N3C[C@H](O)[C@@H](O)C3)c2)cc(C(F)(F)F)c1C#N"
  Vd / L/kg: 2.7
- STRUCTURE NOTATION: "OC[C@H]1CCN1c1nc(-c2cnn(C3CCNCC3)c2)cc(C(F)(F)F)n1"
  Vd / L/kg: 8.4

a: C[C@H]1CCN1c1nc(-c2cnn(CC(=O)NCCO)c2)cc(C(F)(F)F)c1C#N
b: OC[C@H]1CCN1c1nc(-c2cnn(C3CNC3)c2)cc(C(F)(F)F)n1
In: Given the two records a and b , choose the one whose Vd value is lower. # respond with the chosen item's label
Out: a

* * *

METHOD: Half life in dog at 1 mg/kg, iv
Format: ADME, organism-based, Canis lupus familiaris
PARTICULARS: in vivo
MEASUREMENT TYPE: half-life (h)

- STRUCTURE NOTATION: "OC[C@H]1CCN1c1nc(-c2cnn(C3CCNCC3)c2)cc(C(F)(F)F)n1"
  half-life / h: 5
- STRUCTURE NOTATION: "OC[C@H]1CCN1c1nc(-c2cnn(C3CNC3)c2)cc(C(F)(F)F)n1"
  half-life / h: 3.7

P: C[C@H]1CCN1c1nc(-c2cnn(CC(=O)N3CCNCC3)c2)cc(C(F)(F)F)n1
Q: C[C@H]1CCN1c1nc(-c2cnn(CC(=O)NCCO)c2)cc(C(F)(F)F)c1C#N
R: C[C@H]1CCN1c1nc(-c2cnn(CC(=O)N3C[C@H](O)[C@@H](O)C3)c2)cc(C(F)(F)F)c1C#N
In: Hey, can you sort those compounds up there by half-life, smallest first? Form entry: ranked labels (order as requested).
Out: R, Q, P
(R: 2.1 h, Q: 5.2 h, P: 28 h)
